# Study system: BuChE (Homo sapiens)
# Construct: BuChE was obtained from human plasma (purchased from Beijing Red Cross Blood Center China); tissue Beijing Red Cross Blood Center China
# Sequence (P06276 29-602): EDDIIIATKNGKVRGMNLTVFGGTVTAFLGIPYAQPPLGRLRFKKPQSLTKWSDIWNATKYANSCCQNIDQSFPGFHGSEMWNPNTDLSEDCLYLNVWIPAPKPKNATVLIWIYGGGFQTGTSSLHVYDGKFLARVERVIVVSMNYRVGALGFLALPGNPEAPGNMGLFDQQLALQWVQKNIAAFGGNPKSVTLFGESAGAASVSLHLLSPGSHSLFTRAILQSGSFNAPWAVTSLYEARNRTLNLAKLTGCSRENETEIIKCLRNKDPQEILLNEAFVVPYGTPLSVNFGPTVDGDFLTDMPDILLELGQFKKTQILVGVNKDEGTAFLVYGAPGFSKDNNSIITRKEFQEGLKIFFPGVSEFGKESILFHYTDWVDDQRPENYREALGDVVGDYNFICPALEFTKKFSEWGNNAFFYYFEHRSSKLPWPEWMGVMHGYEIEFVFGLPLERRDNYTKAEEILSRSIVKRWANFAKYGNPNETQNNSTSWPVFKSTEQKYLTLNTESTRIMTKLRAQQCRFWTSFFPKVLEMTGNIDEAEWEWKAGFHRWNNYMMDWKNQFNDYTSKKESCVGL
# Procedure text: BuChE kinetic study (Lineweaver-Burk and Dixon plots)
# Stated conditions: Dixon plot; inhibitor 0.3, 1, 3 μM; five substrate concentrations; n = 3
Quantity: Ki (nM)
Expressed in nM, but write only the number.

Example results:
O=C(CCN1CCCCC1)c1ccc(-c2ccc(C(=O)CCN3CCCCC3)cc2)cc1 :: 1810
O=C(CCN1CCCCC1)c1ccc2oc3ccc(C(=O)CCN4CCCCC4)cc3c2c1 :: 740

For the next question, use this compound.
Q. Query: Ki; subject: O=C(CCN1CCCCC1)c1ccc(-c2ccc(C(=O)CCN3CCCCC3)cc2F)cc1
A. 1630
